Cited source: ChEMBL document CHEMBL5390241

Test system: Cryptococcus neoformans
Experiment: Antifungal activity against Cryptococcus neoformans H99 assessed as inhibition in growth incubated for 48 hrs by broth microdilution method
Assay type: functional
I'd appreciate it if you could supply MIC80 values for the items below.
Answers are plain numbers, in µg/mL.

molecule: CC(=O)O[C@@H]1C[C@]23C4=CC[C@@]5(C)[C@H](C(=O)O)[C@@](C)([C@H](C)C(C)C)CC[C@]5(C)[C@H]4CC[C@H]2[C@@](C)(COC3O)[C@H]1O[C@@H]1O[C@H](CO)[C@@H](O)[C@H](O)[C@H]1O (some centres undefined) [ENFUMAFUNGIN]
unit text: µg/mL
numeric value: 4

// returns reported MIC80 for input CC(=O)O[C@@H]1C[C@]23C4=CC[C@@]5(C)[C@@H]6C(=O)C[C@H](C(C)C)[C@@]6(C)CC[C@]5(C)[C@H]4CC[C@H]2[C@@](C)(COC3O)[C@H]1O[C@@H]1O[C@H](CO)[C@@H](O)[C@H](O)[C@H]1O (some centres undefined)
32

###

System: Nakaseomyces glabratus
Experiment: Antifungal activity against Candida glabrata 537 assessed as inhibition in growth incubated for 48 hrs by broth microdilution method
Assay type: functional
Consider the following molecules; for each one, report its MIC80.
Give bare numbers, in µg/mL.

Answered examples (3):
molecule: CC(=O)O[C@@H]1C[C@]23C4=CC[C@@]5(C)[C@H](C(=O)O)[C@@](C)([C@H](C)C(C)C)CC[C@]5(C)[C@H]4CC[C@H]2[C@@](C)(COC3O)[C@H]1O[C@@H]1O[C@H](CO)[C@@H](O)[C@H](O)[C@H]1O (some centres undefined)
tested target: Nakaseomyces glabratus
assay readout: MIC80
numeric value: 8
//
molecule: CC(=O)O[C@@H]1C[C@]23C4=CC[C@@]5(C)[C@@H]6C(=O)C[C@H](C(C)C)[C@@]6(C)CC[C@]5(C)[C@H]4CC[C@H]2[C@@](C)(COC3O)[C@H]1O[C@@H]1O[C@H](CO)[C@@H](O)[C@H](O)[C@H]1O (some centres undefined)
tested target: Nakaseomyces glabratus
assay readout: MIC80
numeric value: 16
//
molecule: OC(Cn1cncn1)(Cn1cncn1)c1ccc(F)cc1F
tested target: Nakaseomyces glabratus
assay readout: MIC80
numeric value: 1

Now, please, on to the next molecule.
# MIC80 lookup, item CC(C)[C@@H](C)[C@@]1(C)CC[C@]2(C)[C@H]3CC[C@H]4[C@@]5(C)COC(O)[C@@]4(C[C@@H](O)[C@@H]5O[C@@H]4O[C@H](CO)[C@@H](O)[C@H](O)[C@H]4O)C3=CC[C@@]2(C)[C@@H]1C(=O)O (some centres undefined)
32
